The origin of these recorded values is the RNAGym collection of RNA variant scans (doi:10.7554/elife.80360).

B1: HDV Ribozyme (parent)
chain: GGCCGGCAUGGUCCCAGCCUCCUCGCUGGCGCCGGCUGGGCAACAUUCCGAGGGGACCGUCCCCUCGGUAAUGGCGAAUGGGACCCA

Variants of: B1
Test: self-cleavage, relative activity (ratio to wild type); higher = more cleavage; co-transcriptional
QUANTITY NAME: self-cleavage
// return a plain number; no unit text

Answered examples (5):
[
  {
    "MUTANT ID": "A71C G81A",
    "self-cleavage": 0.309
  },
  {
    "MUTANT ID": "U46A C75G",
    "self-cleavage": 0.0594
  },
  {
    "MUTANT ID": "G10U G52U",
    "self-cleavage": 0.891
  },
  {
    "MUTANT ID": "G39U",
    "self-cleavage": 0.727
  },
  {
    "MUTANT ID": "C19G U65C",
    "self-cleavage": 0
  }
]

Exercise: Would you mind telling me what self-cleavage value was observed for G40C G52A ?
Key: 0.247

Exercise: Subsequent entry: A43C C75A
Key: 0.298

Exercise: Param item: G2C A87C
Key: 0.0523

Exercise: Now give it for G53U A78C too.
Key: 0.229

Exercise: Also check C24G C61U
Key: 0.166

Exercise: Moving on to A43G U79C
Key: 0.0941

Exercise: Next: C15U G76C
Key: 1.03

Exercise: Same thing, different variant: U9G C66U
Key: 0.727

Exercise: Here is the next variant: G59U C85A
Key: 0.749

Exercise: Now this one: C44G G68U
Key: 0.399

Exercise: Next up: C4A U12C
Key: 0.095

Exercise: Cool, now G5C C13A
Key: 0.0755

Exercise: Follow-up item: U23A G50A
Key: 1.06

Exercise: Follow-up item: C33A G38A
Key: 0.0386

Exercise: Try this variant next: C58U G74A
Key: 0.462

Exercise: Now the variant G11C C57U
Key: 0.388

Exercise: Also A56U A87U , if possible.
Key: 1.08

Exercise: Cool, now G50U G81C
Key: 0.479

Exercise: Now the same for U12C C18G
Key: 0

Exercise: Same again, this time with G17C C18G
Key: 0
